# System: P388 leukemia ip, CD2F1 mice, survival T/C
# run-description: NCI In Vivo Anticancer Drug Screen. Data for tumor model P388 Leukemia (intraperitoneal) in CD2F1 (CDF1) mice
# test-context: endpoint: median survival time; dose: 200.0 mg/kg/injection; schedule: Q04DX003 (ip); vehicle: other
Toxic doses and inconclusive results are not listed. Rule for the calls: active = survival T/C of 150% or more; inactive = T/C below 125% in these data.
Labels: YES (active), NO (inactive)

O=c1sc(N=Nc2ccccc2)nn1-c1ccccc1    NO
OC1OCC(Cc2ccc3c(c2)OCO3)C1Cc1ccc2c(c1)OCO2 (centres undefined)    NO
COc1ccc(NCCOc2ccccc2Br)cc1    NO
Nc1cc2c(c[n+](CCCCCCCCCC[n+]3cc4c5ccccc5c(N)cc4c4ccccc43)c3ccccc23)c2ccccc12    YES

---

# Tested on: P388 leukemia ip, CD2F1 mice, survival T/C
# run-description: NCI In Vivo Anticancer Drug Screen. Data for tumor model P388 Leukemia (intraperitoneal) in CD2F1 (CDF1) mice
# test-context: endpoint: median survival time; dose: 60.0 mg/kg/injection; schedule: Q01DX005 (ip); vehicle: saline with Tween-80; higher = longer survival
Inconclusive results and toxic doses are left out.
# T/C per entry
measure-name: T/C

CCCC/C([O-])=C1/C(=O)N(c2ccccc2)N=C1C.CCCC/C([O-])=C1/C(=O)N(c2ccccc2)N=C1C.[Cu+2]    90 % of control
O=P(CSCCO)(c1ccccc1)c1ccccc1    89 % of control
O=C(Cc1csc2ccccc12)NCC1CC1    100 % of control
COc1ccc2oc3cc(Cl)ccc3c(=O)c2c1    118 % of control
CSC1NN=C(CCC(=O)Nc2ccc(C)cc2)O1 (stereo unspecified)    108 % of control
Cc1cccc(Cl)c1NC(=O)Nc1cccc(C#N)c1    93 % of control
O=C(Nc1cc(Cl)cc(Cl)c1)OCCCl    100 % of control
CCO/C=C1/N=C(COc2ccc(Cl)cc2C)OC1=O    101 % of control
[Cu+2].[O-]/N=C/c1ccc(O)c(O)c1[O-].[O-]/N=C/c1ccc(O)c(O)c1[O-]    91 % of control
Cc1c(N=O)c(-c2ccccc2)n(O)[n+]1[O-]    102 % of control
CCc1nc(N)nc(N)c1-c1ccc(Cl)c(S(=O)(=O)O)c1    103 % of control
CN(CC(N)=O)C(=O)c1cnc2ccccc2c1    98 % of control
COc1ccccc1/C=C1/C(=O)ON=C1C    100 % of control
O=C(c1ccccc1)C(N=Nc1ccccc1)(c1ccccc1)c1ccccc1    101 % of control
c1ccc2c(SCCOCCSc3c4ccccc4nc4ccccc34)c3ccccc3nc2c1    98 % of control
COc1cc(O)c(/C=N/NC(=S)NC23CC4CC(CC(C4)C2)C3)c(OC)c1    93 % of control
CCOC(=O)N1c2ccccc2SC1C#N (stereo unspecified)    97 % of control
CCOC(=O)c1ccc(NC(=O)Oc2cc(C)ccc2C)cc1    94 % of control
O=C(NC1CCCN1C(=O)/C=C/c1ccccc1)NC1CCCN1C(=O)/C=C/c1ccccc1 (stereo unspecified)    100 % of control
COc1ccc(Cc2nnc(NN)[nH]c2=O)cc1OC    101 % of control
Nc1cc(=O)n(Cc2ccccc2)c(N)c1C(=O)NCc1ccccc1    106 % of control
COC1=C(C(C2=C(OC)CC(C)(C)CC2=O)c2ccc3c(c2)OCO3)C(=O)CC(C)(C)C1    102 % of control
Nc1ccc(S(=O)(=O)Nc2nc(-c3ccccc3)cc(-c3ccccc3O)n2)cc1    96 % of control
COC1(OC)C2(Cl)CC(C(=O)O)C1(Cl)C(Cl)=C2Cl (stereo unspecified)    102 % of control
[N-]=[N+]=Nc1ccnc2ccc(C3CCCCC3)cc12    100 % of control
CNC(=O)Nc1ccc(/C(C)=N/NC(N)=S)cc1    96 % of control
Cc1c(C(N)=O)c(NC=O)n(-c2ccccc2)c1C    100 % of control
C/C(=C1/SC(=S)NC1=O)c1ccc(Cl)c(O)c1    99 % of control
NCCCn1[nH]c(=O)c2ncccc2c1=O    110 % of control
Cc1cc2nc(CC(=O)c3ccccc3)c(=O)[nH]c2cc1C    90 % of control
CCOC(=O)c1ccc(N=Cc2cccc([N+](=O)[O-])c2)cc1    91 % of control
CC1CC(=O)OC(C(=O)c2ccccc2)N1c1ccc(C(F)(F)F)cc1N (stereo unspecified)    110 % of control
CC(=O)OCCOCNC(=S)N/N=C/c1ccccn1    115 % of control
CCc1ccccc1NC1=C(Cl)C(=O)c2ccccc2C1=O    104 % of control
O=C(Nc1ccc(S(=O)(=O)Nc2nccs2)cc1)c1cccnc1Nc1cccc(Cl)c1    111 % of control
CN(C)c1cccc2c(Cl)c(Cl)c3cccc(N(C)C)c3c12    98 % of control
CC1(C)OC2OC3COP(=O)(c4ccccc4)C3(CC#N)C2O1 (stereo unspecified)    94 % of control
C=CC1(C)CCOC(=O)C1 (stereo unspecified)    94 % of control
Cc1cccc(Cl)c1NC(=O)Nc1ccc(Cl)cc1C(=O)c1ccccc1    99 % of control
O=C(Cc1n[nH]c(=S)nc1CC(=O)c1cccnc1)c1cccnc1    100 % of control
O=[N+]([O-])c1ccccc1N(CCO)CCO    96 % of control
CCOc1ccc(/C=N/NC(=O)C(O)c2ccccc2)cc1OC (stereo unspecified)    96 % of control
CC(=O)OCC1OC(Nc2[nH]c(=O)n(C)c(=O)c2C(=O)CCl)C(OC(C)=O)C(OC(C)=O)C1OC(C)=O (stereo unspecified)    114 % of control
COc1cc(C2c3c(oc4ccccc4c3=O)Oc3oc4ccccc4c(=O)c32)cc(OC)c1O    92 % of control
COC(=O)c1ncn(C(C(=O)OC)C(=O)OC)c1O    104 % of control
N#Cc1nc(CC(=O)c2ccccc2)c(CC(=O)c2ccccc2)nc1C#N    100 % of control

This collection of values is drawn from PubChem BioAssay AID330.
